# system: KRAS G12V (Homo sapiens (Human), UniProt P01116+P62937, G12V)
# Sequence (P01116-2 other isoform, or with tags, fused parts or gaps G12V, one chain of several): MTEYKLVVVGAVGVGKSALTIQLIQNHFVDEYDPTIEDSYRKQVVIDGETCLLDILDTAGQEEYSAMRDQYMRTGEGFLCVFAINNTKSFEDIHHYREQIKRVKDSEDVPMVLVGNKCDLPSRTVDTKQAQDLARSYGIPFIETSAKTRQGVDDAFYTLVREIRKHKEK
# measurement-description: Ras-Raf (BRAF RBD) disruption / FRET / MOA assay, KRAS G12V
# Assay type: biochemical
# study-conditions: read-out: IC50* KRAS G12V FRET data
Catalogue of IC50 values

Reference set, count: 3
molecule	system	IC50
C=CC(=O)N1CC[C@H](C(=O)N(C)[C@H](C(=O)N[C@H]2Cc3cc(O)cc(c3)-c3ccc4c(c3)c(c(-c3ccc(N5CCN(C)CC5)nc3)n4CC)CC(C)(C)COC(=O)[C@@H]3CCCN(N3)C2=O)C(C)C)C1 [Example A089]	KRAS G12V (Homo sapiens (Human), UniProt P01116+P62937, G12V)	1000 to 10000 nM
C=CC(=O)N1CC2(CCN2C(=O)N(C)[C@H](C(=O)N[C@H]2Cc3nc(n(C)n3)-c3ccc4c(c3)c(c(-c3cccnc3[C@H](C)OC)n4CC)CC(C)(C)COC(=O)[C@@H]3CCCN(N3)C2=O)C(C)C)C1 (atropisomer, axis not shown) [Example A612]	KRAS G12V (Homo sapiens (Human), UniProt P01116+P62937, G12V)	100 to 1000 nM
CC#CC(=O)N1CCC(C(=O)N(C)[C@H](C(=O)N[C@H]2Cc3nc(cs3)-c3ccc4c(c3)c(c(-c3cccnc3[C@H](C)OC)n4CC)CC(C)(C)COC(=O)[C@@H]3CCCN(N3)C2=O)C(C)C)C1 (atropisomer, axis not shown) [Example A168]	KRAS G12V (Homo sapiens (Human), UniProt P01116+P62937, G12V)	1000 to 10000 nM

Note: attention shifts to another entry.
Input: Given the entry CCn1c(-c2cccnc2[C@H](C)OC)c2c3cc(ccc31)-c1cccc(c1)C[C@H](NC(=O)[C@H](C1CCCC1)N(C)C(=O)[C@@H]1CN(C(=O)C#CC(C)(C)N(C)C)C[C@@H]1C)C(=O)N1CCC[C@H](N1)C(=O)OCC(C)(C)C2 (atropisomer, axis not shown) [Example A391] , report its measured IC50.
Output: 1000 to 10000 nM

----------
# system: NRAS Q61R (Homo sapiens (Human), UniProt P01111+P62937, Q61R)
# Sequence (P01111 whole entry Q61R): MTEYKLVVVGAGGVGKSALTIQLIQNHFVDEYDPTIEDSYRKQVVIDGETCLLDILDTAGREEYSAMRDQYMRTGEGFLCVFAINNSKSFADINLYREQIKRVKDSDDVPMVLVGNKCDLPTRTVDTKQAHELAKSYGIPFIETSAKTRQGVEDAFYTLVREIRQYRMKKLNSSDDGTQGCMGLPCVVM
# Sequence (P62937 whole entry): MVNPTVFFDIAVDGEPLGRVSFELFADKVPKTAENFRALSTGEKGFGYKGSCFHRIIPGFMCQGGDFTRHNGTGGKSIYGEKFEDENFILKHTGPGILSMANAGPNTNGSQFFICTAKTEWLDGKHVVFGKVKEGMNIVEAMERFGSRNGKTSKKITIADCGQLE
# measurement-description: Ras-Raf (BRAF RBD) disruption / FRET / MOA assay, NRAS Q61R
# Format: biochemical
# study-conditions: NRAS Q61R; Ras-Raf disruption/FRET/MOA assay; read-out: IC50* NRAS Q61R FRET data
pIC50: −log10 of the molar value.
measured-metric: pIC50

molecule	pIC50
CCn1c(-c2cccnc2)c2c3cc(ccc31)-c1csc(c1)C[C@H](NC(=O)[C@H](C(C)C)N(C)C(=O)[C@H]1CCN(C(=O)C#CCN3CCOCC3)C1)C(=O)N1CCC[C@H](N1)C(=O)OCC(C)(C)C2 [Example A205]	< 5.00

// next item, pIC50 requested
Input: So what does the record say about pIC50 for C=CS(=O)(=O)N1CCC2(CCN([C@H](C(=O)N[C@H]3Cc4cc(O)cc(c4)-c4ccc5c(c4)c(c(-c4cccnc4[C@H](C)OC)n5CC)CC(C)(C)COC(=O)[C@@H]4CCCN(N4)C3=O)C(C)C)C2=O)CC1 (atropisomer, axis not shown) [Example A299] ?
Output: 6.00 to 7.00

----------
# system: KRAS G12S (Homo sapiens (Human), UniProt P01116+P62937, G12S)
# Sequence (P01116-2 other isoform, or with tags, fused parts or gaps G12S, one chain of several): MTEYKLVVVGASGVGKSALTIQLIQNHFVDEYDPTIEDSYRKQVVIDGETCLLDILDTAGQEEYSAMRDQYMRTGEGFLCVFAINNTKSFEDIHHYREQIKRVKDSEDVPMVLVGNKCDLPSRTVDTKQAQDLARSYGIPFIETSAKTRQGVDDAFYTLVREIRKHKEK
# measurement-description: Ras-Raf (BRAF RBD) disruption / FRET / MOA assay, KRAS G12S
# Type: biochemical
# study-conditions: Ras-Raf disruption/FRET/MOA assay; class symbols; read-out: KRAS G12S FRET data IC50
Each item that follows carries a reported IC50.

These recorded examples may help you get a feel for the data.
compound	measured-metric	experimental-result
C=CC(=O)N1CC[C@@]2(COCCN2C(=O)N(C)[C@H](C(=O)N[C@H]2Cc3nc(cs3)-c3ccc4c(c3)c(c(-c3cccnc3[C@H](C)OC)n4CC)CC(C)(C)COC(=O)[C@@H]3CCCN(N3)C2=O)C(C)C)C1 (atropisomer, axis not shown) [Example A677]	IC50	100 to 1000 nM
CCn1c(-c2cccnc2[C@H](C)OC)c2c3cc(ccc31)N1CCC[C@@H](C[C@H](NC(=O)[C@@H](COC3CN(C(=O)C#CC(C)(C)N(C)C)C3)C(C)C)C(=O)N3CCC[C@H](N3)C(=O)OCC(C)(C)C2)C1 (atropisomer, axis not shown) [Example A715]	IC50	> 10000 nM
CCn1c(-c2cccnc2COC)c2c3cc(ccc31)-c1cc(O)cc(c1)C[C@H](NC(=O)[C@H](C(C)C)N(C)C(=O)[C@H]1CCN(C(=O)/C=C/CN3CCOCC3)C1)C(=O)N1CCC[C@H](N1)C(=O)OCC(C)(C)C2 [Example A134]	IC50	1000 to 10000 nM
CCn1c(-c2cccnc2[C@H](C)OC)c2c3cc(ccc31)-c1csc(n1)C[C@H](NC(=O)[C@H](C(C)C)N(C)C(=O)N1CCC3(CC1)CN(C(=O)/C=C/C(F)F)C3)C(=O)N1CCC[C@H](N1)C(=O)OCC(C)(C)C2 (atropisomer, axis not shown) [Example A683]	IC50	100 to 1000 nM

Input: IC50 for C=CC(=O)N1CC2(COCCN2C(=O)N(C)[C@H](C(=O)N[C@H]2Cc3nc(cs3)-c3ccc4c(c3)c(c(-c3cccnc3[C@H](C)OC)n4CC)CC(C)(C)COC(=O)[C@@H]3CCCN(N3)C2=O)C(C)C)C1 (atropisomer, axis not shown) [Example A352] ?
Output: > 10000 nM

Input: For the compound C=CC(=O)N1CC[C@H](C(=O)N(C)[C@H](C(=O)N[C@H]2Cc3cccc(c3)-c3ccc4c(c3)c(c(-c3cccnc3[C@H](C)OC)n4CC)CC(C)(C)COC(=O)[C@@H]3CCCN(N3)C2=O)[C@@H](C)C(F)(F)F)C1 (atropisomer, axis not shown) [Example A640] , what IC50 is on record?
Output: 1000 to 10000 nM

Input: // returns reported IC50 for input CCn1c(-c2cccnc2[C@H](C)OC)c2c3cc(ccc31)-c1cnc(o1)C[C@H](NC(=O)[C@@H](COC1CN(C(=O)C#CC(C)(C)N(C)C)C1)C(C)C)C(=O)N1CCC[C@H](N1)C(=O)OCC(C)(C)C2 (atropisomer, axis not shown) [Example A649]
Output: > 10000 nM

----------
# system: KRAS G12V (Homo sapiens (Human), UniProt P01116+P62937, G12V)
# measurement-description: Ras-Raf (BRAF RBD) disruption / FRET / MOA assay, KRAS G12V
# Assay type: biochemical
# study-conditions: read-out: IC50* KRAS G12V FRET data
pIC50: −log10 of the molar value.
Each entry below carries its recorded pIC50.

compound	pIC50
CO[C@@H](C)c1ncccc1-c1c2c3cc(ccc3n1CC(F)(F)F)-c1csc(n1)C[C@H](NC(=O)[C@@H](COC1CN(C(=O)C#CC(C)(C)N(C)C)C1)C(C)C)C(=O)N1CCC[C@H](N1)C(=O)OCC(C)(C)C2 (atropisomer, axis not shown)	5.00 to 6.00
CCn1c(-c2cccnc2[C@H](C)OC)c2c3cc(ccc31)-c1cc(CF)cc(c1)C[C@H](NC(=O)[C@H](C(C)C)N(C)C(=O)[C@H]1CCN(C(=O)C#CC(C)(C)N(C)C)C1)C(=O)N1CCC[C@H](N1)C(=O)OCC(C)(C)C2 (atropisomer, axis not shown)	5.00 to 6.00
C=CC(=O)N1CC(C(=O)N(C)[C@H](C(=O)N[C@H]2Cc3cc(O)cc(c3)-c3ccc4c(c3)c(c(-c3cccnc3[C@H](C)OC)n4CC)CC(C)(C)COC(=O)[C@@H]3CCCN(N3)C2=O)C(C)C)C1 (atropisomer, axis not shown)	6.00 to 7.00

Input: # query: pIC50 of entry CO[C@@H](C)c1ncccc1-c1c2c3cc(ccc3n1CC(F)(F)F)-c1nc(cs1)C[C@H](NC(=O)[C@H](C(C)C)N(C)C(=O)[C@H]1CCN(C(=O)C#CC(C)(C)N3CCC3)C1)C(=O)N1CCC[C@H](N1)C(=O)OCC(C)(C)C2 (atropisomer, axis not shown)
Output: 5.00 to 6.00

Input: Entry CCn1c(-c2cccnc2[C@H](C)OC)c2c3cc(ccc31)-c1cccc(c1)C[C@H](NC(=O)[C@H](C(C)C)N(C)C(=O)[C@H]1CCN(C(=O)C#CC3(N(C)C)CCOCC3)C1)C(=O)N1CCC[C@H](N1)C(=O)OCC(C)(C)C2 (atropisomer, axis not shown) : reported pIC50 = ?
Output: 5.00 to 6.00

Input: Which measured pIC50 value corresponds to C=CC(=O)N(C)[C@H]1CC1N(C)C(=O)N(C)[C@H](C(=O)N[C@H]1Cc2nc(cs2)-c2ccc3c(c2)c(c(-c2cccnc2[C@H](C)OC)n3CC)CC(C)(C)COC(=O)[C@@H]2CCCN(N2)C1=O)C(C)C (stereo partly drawn) ?
Output: 5.00 to 6.00

Input: Request the reported pIC50 associated with `C=CC(=O)N1CC(OC[C@H](C(=O)N[C@H]2Cc3cc(O)cc(c3)-c3ccc4c(c3)c(c(-c3cccnc3COC)n4CC)CC(C)(C)COC(=O)[C@@H]3CCCN(N3)C2=O)C(C)C)C1`
Output: 5.00 to 6.00

Input: Request the reported pIC50 associated with CCn1c(-c2cccnc2[C@H](C)OC)c2c3cc(ccc31)-c1nc(cs1)C[C@H](NC(=O)[C@H](C1CCCC1)N(C)C(=O)[C@H]1CCN(C(=O)C#CC(C)(C)N3CCC3)C1)C(=O)N1CCC[C@H](N1)C(=O)OCC(C)(C)C2 (atropisomer, axis not shown)
Output: 5.00 to 6.00

Input: State the recorded pIC50 for this entry: C=CC(=O)N1CCN(C(=O)N(C)[C@H](C(=O)N[C@H]2Cc3nc(cs3)-c3ccc4c(c3)c(c(-c3cccnc3[C@H](C)OC)n4CC)CC(C)(C)COC(=O)[C@@H]3CCCN(N3)C2=O)C(C)C)C2(CC2)C1 (atropisomer, axis not shown)
Output: 6.00 to 7.00

Input: Field request: pIC50 | item: `CCn1c(-c2cnccc2COC)c2c3cc(ccc31)-c1cncc(c1)C[C@H](NC(=O)[C@H](C(C)C)N(C)C(=O)[C@H]1CCN(C(=O)C#CCN(C)C)C1)C(=O)N1CCC[C@H](N1)C(=O)OCC(C)(C)C2`
Output: < 5.00

Input: Quick check: pIC50 of C=CC(=O)N1CCO[C@@H]2CCN(C(=O)N(C)[C@H](C(=O)N[C@H]3Cc4nc(cs4)-c4ccc5c(c4)c(c(-c4cccnc4[C@H](C)OC)n5CC)CC(C)(C)COC(=O)[C@@H]4CCCN(N4)C3=O)C(C)C)C[C@@H]21 (atropisomer, axis not shown) ?
Output: 6.00 to 7.00

Input: Returns the measured pIC50 for the input compound. Input: CCn1c(-c2cccnc2[C@H](C)OC)c2c3cc(ccc31)-c1cc(O)cc(c1)C[C@H](NC(=O)[C@H](C(C)C)N(C)C(=O)N1CCCN(C(=O)/C=C/CN(C)C)CC1)C(=O)N1CCC[C@H](N1)C(=O)OCC(C)(C)C2 (atropisomer, axis not shown)
Output: 7.00 to 8.00

Input: What value of pIC50 has been recorded for this entry: CCn1c(-c2cccnc2[C@H](C)OC)c2c3cc(ccc31)-c1cc(F)cc(c1)C[C@H](NC(=O)[C@@H](COC1CN(C(=O)C#CC(C)(C)N(C)C)C1)C(C)C)C(=O)N1CCC[C@H](N1)C(=O)OCC(C)(C)C2 (atropisomer, axis not shown)
Output: 5.00 to 6.00

Input: Would you kindly share the measured pIC50 for `COCc1ncccc1-c1nc2ccc3cc2n1CC(C)(C)COC(=O)[C@@H]1CCCN(N1)C(=O)[C@@H](NC(=O)[C@H](C(C)C)N(C)C(=O)[C@H]1CCN(C(=O)C#CCN2CCOCC2)C1)Cc1cc(O)cc-3c1` ?
Output: < 5.00

Input: Any idea what its pIC50 is? The compound is C=CC(=O)N1C[C@@H]2[C@H](C1)[C@@H]2C(=O)N(C)[C@H](C(=O)N[C@H]1Cc2cc(O)cc(c2)-c2ccc3c(c2)c(c(-c2cccnc2[C@H](C)OC)n3CC)CC(C)(C)COC(=O)[C@@H]2CCCN(N2)C1=O)C(C)C (atropisomer, axis not shown)
Output: 7.00 to 8.00

// provenance: patent US11566007B2
